- assay_target: GlcNAc(a1-4)Gal(b1-3)GlcNAc
- measurement_description: glycan array binding signal (z-score within array); higher = stronger binding
- condition_label: glycan notation: IUPAC condensed, linker removed
Many of the other results were omitted from the sample, so the strongest signals are more common in it than they were.
result_type: glycan array binding signal (z-score)
Please give only the number in your answer, with no unit.

The reported glycan array binding signal (z-score) of the binder FliC (Clostridium difficile) (protein) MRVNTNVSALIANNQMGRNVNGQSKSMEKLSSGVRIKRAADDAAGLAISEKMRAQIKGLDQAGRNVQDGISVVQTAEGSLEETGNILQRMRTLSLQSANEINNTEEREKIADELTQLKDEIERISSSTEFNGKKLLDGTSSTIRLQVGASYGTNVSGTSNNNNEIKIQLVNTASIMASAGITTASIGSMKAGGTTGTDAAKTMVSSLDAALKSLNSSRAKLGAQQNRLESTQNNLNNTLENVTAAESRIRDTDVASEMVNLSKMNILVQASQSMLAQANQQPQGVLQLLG was 0.947

Record Pwp5 ND (Candida glabrata) (protein) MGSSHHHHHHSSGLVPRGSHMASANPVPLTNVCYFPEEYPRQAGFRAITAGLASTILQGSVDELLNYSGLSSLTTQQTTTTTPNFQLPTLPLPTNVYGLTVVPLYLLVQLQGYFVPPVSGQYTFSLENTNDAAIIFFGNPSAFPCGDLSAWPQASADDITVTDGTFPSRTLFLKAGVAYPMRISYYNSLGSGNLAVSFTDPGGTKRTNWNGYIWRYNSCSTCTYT . Reported glycan array binding signal (z-score): -0.557

Consider AFL (Aspergillus fumigatus), Q4WW81 (protein) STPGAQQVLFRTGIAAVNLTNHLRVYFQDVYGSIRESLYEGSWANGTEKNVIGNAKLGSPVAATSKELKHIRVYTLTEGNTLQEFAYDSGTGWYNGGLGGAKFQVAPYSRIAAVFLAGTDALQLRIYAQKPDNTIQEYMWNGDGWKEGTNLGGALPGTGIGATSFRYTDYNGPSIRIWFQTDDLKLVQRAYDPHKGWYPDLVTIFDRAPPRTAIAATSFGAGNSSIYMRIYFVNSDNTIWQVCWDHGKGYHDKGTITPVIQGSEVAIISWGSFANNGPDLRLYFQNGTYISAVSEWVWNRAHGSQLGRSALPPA . Its measured glycan array binding signal (z-score) is -0.377

Reported glycan array binding signal (z-score) for SfaEH (Escherichia coli), Q1RDG5 (protein) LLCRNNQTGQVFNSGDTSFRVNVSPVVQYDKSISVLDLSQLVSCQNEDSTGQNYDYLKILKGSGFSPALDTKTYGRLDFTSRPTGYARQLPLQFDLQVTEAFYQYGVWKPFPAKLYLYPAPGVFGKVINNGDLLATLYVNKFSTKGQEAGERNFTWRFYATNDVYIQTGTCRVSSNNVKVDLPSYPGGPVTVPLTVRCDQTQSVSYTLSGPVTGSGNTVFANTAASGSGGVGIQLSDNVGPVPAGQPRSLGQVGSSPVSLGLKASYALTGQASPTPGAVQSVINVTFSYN was -0.403

Data point: Epa12 (Candida glabrata) (protein) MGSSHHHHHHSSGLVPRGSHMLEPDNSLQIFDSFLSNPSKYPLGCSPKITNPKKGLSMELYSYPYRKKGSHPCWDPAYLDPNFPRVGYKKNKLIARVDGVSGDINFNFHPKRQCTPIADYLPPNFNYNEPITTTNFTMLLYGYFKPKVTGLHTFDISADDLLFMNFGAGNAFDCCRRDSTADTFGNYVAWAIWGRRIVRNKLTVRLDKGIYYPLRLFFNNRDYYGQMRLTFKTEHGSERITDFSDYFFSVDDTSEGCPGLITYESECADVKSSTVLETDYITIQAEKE ; glycan array binding signal (z-score) = -0.483

Sample GH98CBM51-1 (Streptococcus pneumoniae) (protein) MTYLSDMDWSSATHGDIDKTKTVQKDAPFTTGNKGEHTKISLLTSDDKVKYFDKGIGTVADSPSVISYDISGQGFEKFETYIGIDQSANSSRSDHAVVDRIEIEIDGKVVYSSSVTNPEGFRYNTQAQFISVTIPQNAKKISLKSFAGEHTWGDEVVFADAKLIKTVST ; glycan array binding signal (z-score) observed: -0.189

glycan array binding signal (z-score) reading for F17aG (Escherichia coli), Q99003 (protein) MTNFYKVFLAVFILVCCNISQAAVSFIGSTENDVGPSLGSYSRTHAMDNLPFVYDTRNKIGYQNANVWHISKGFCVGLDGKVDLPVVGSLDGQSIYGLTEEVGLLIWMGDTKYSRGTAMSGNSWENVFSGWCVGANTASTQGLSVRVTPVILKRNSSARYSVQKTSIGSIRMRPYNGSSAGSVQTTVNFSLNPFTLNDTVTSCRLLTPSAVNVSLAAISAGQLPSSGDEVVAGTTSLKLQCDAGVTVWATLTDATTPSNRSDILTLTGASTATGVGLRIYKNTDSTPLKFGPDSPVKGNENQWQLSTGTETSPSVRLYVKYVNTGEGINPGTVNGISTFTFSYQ : -0.089

Consider CBM40 CPF071 (Clostridium perfringens) (protein) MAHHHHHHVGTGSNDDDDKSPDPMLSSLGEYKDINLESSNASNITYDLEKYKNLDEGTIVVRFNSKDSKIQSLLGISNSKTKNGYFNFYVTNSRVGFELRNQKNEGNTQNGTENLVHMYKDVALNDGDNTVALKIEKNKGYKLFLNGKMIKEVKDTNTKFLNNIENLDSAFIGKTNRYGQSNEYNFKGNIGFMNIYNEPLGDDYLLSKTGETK . Its measured glycan array binding signal (z-score) is -0.341

Reported glycan array binding signal (z-score) ( CBP21 (Serratia marcescens), O83009 (protein) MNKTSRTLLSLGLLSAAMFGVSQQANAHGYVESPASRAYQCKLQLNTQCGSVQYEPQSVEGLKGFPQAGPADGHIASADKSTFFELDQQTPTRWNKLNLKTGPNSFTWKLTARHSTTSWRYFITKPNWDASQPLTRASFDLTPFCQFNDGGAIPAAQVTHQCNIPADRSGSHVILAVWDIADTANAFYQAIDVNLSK ) = 0.503

For record Epa3to2 (Candida glabrata) (protein) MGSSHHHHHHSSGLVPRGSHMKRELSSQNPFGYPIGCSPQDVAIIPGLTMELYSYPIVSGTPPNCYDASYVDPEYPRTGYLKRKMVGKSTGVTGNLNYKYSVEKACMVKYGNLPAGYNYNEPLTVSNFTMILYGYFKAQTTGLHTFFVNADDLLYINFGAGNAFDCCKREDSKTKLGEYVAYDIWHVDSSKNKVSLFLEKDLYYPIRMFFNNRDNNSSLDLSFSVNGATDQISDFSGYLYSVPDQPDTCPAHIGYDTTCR the listed glycan array binding signal (z-score) is -1.92
